assay-target: T1, Human CD122 His tagged (human, UniProt P14784 27-240)
T1 construct: also called hCD122; monomeric antigen; not shown: His tag
T1 sequence: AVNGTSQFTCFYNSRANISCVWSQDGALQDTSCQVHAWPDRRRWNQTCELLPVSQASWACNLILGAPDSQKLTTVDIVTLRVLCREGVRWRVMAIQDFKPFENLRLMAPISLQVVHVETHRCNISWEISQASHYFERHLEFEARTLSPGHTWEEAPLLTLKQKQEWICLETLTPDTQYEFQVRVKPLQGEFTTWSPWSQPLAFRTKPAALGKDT
assay-remarks: Biacore, Fab affinity and kinetics on hCD122
endpoint-label: koff (s⁻¹)
Write it as a number; the unit s⁻¹ goes unstated.

VillFab-1 (Fab, V domains shown, also called Villmab-1 in human Fab format) VH: EVQLLESGGGLVQPGGSLRLSCAASGFSVTSYGVHWIRQAPGKGLEWLGVIWSGGSTDYNAAFISRLTISKDNSKNTVYFQMNSLQAEDTAIYYCARAGDYNYDGFAYWGQGTLVTVSS VL: DIVLTQSPSSLSASVGDRVTITCSGSSSVSFMYWYQQRPGKAPRLLIYDTSNLASGVPSRFSGSGSGTSYTFTISSLQPEDIATYYCQQWSTYPLTFGQGTKVEVK	0.0034
FAB05 (Fab, V domains shown, 06F11-V optimization variant; also called Fab version of MAB05) VH: EVQLLESGGGLVQPGGSLRLSCAASGFTVTSYAVHWVRQAPGKGLEWLGVIWSGGSTDYNAAFISRLTISKDNSKNTVYFQMNSLRAEDTAVYYCARAGDANYDGFAYWGQGTLVTVSS VL: DIQMTQSPSSLSASVGDRVTITCQASQSVSFLYWYQQRPGKAPRLLIYDTSNLASGVPSRFSGSGSGTSYTFTISSLQPEDIATYYCQQWSTYPLTFGQGTKVEIK	0.0058
FAB06 (Fab, V domains shown, 06F11-V optimization variant; also called Fab version of MAB06) VH: EVQLLESGGGLVQPGGSLRLSCAASGFTVTSYAVHWVRQAPGKGLEWLGVIWSGGSTDYNAAFISRLTISKDNSKNTVYFQMNSLRAEDTAVYYCARAGDANYDGFAYWGQGTLVTVSS VL: DIQMTQSPSSLSASVGDRVTITCQASSSVSFMYWYQQRPGKAPRLLIYDTSNLASGVPSRFSGSGSGTSYTFTISSLQPEDIATYYCQQWSTYPLTFGQGTKVEIK	0.0044

Attention now turns to another entry.
GET /values?readout=koff&item= FAB18 (Fab, V domains shown, 06F11-V optimization variant; also called Fab version of MAB18) VH: EVQLLESGGGLVQPGGSLRLSCAASGFSVTSYGVHWIRQAPGKGLEWLGVIWSGGSTDYNAAFISRLTISKDNSKNTVYFQMNSLRAEDTAVYYCARAGDYNYDGFAYWGQGTLVTVSS VL: DIQMTQSPSSLSASVGDRVTITCQASSSVSFMYWYQQRPGKAPRLLIYDTSNLASGVPSRFSGSGSGTSYTFTISSLQPEDIATYYCQQWSTYPLTFGQGTKVEIK 0.0039
